# TARGET: recombinant human GST-SYK (Homo sapiens (Human), UniProt P43405)
# EXPERIMENT DESCRIPTION: Homogeneous Time-Resolved Fluorescence (HTRF) Assay for the Recombinant Human Syk Enzyme
# CONDITION DETAILS: GST-SYK 5 pM, ATP 25 μM, biotinylated substrate peptide 250 nM, HTRF signal
OBSERVATION TYPE: log10 IC50 (log10 of the value in nM)

| COMPOUND | VAL |
| --- | --- |
| Cc1cscc1-c1cc(Nc2nccc(C(F)(F)F)n2)cc(-c2cnc([C@]3(O)CC[C@@H](C(=O)O)C(C)(C)C3)s2)c1 (single isomer, unassigned) | 1.39 |
| CC1(C)C[C@](O)(c2ncc(-c3cc(Nc4nccc(C(F)(F)F)n4)cc(-c4cccc(C(=O)NC5CC5)c4)c3)s2)CC[C@H]1C(=O)O (single isomer, unassigned) | 0.44 |
| C[S+]([O-])c1ccccc1-c1cc(Nc2nccc(C(F)(F)F)n2)cc(-c2cnc([C@]3(O)CC[C@@H](C(=O)O)C(C)(C)C3)s2)c1 (single isomer, unassigned) | 1.18 |
| C[C@@H]1C[C@@](O)(c2ncc(-c3cc(Nc4nccc(C(F)(F)F)n4)cc(-c4cn[nH]c4)c3)s2)CC[C@@H]1C(=O)O (racemic) | -0.02 |
| C[C@@H]1C[C@@](O)(c2ncc(-c3cc(Nc4nccc(C(F)(F)F)n4)cc(-c4cn[nH]c4)c3)s2)CC[C@@H]1C(N)=O (racemic) | 0.47 |

====

# TARGET: recombinant human GST-SYK (Homo sapiens (Human), UniProt P43405)
# EXPERIMENT DESCRIPTION: Homogeneous Time-Resolved Fluorescence (HTRF) Assay for the Recombinant Human Syk Enzyme
# CONDITION DETAILS: GST-SYK 5 pM, ATP 25 μM, biotinylated substrate peptide 250 nM, HTRF signal
pIC50: −log10 of the molar value.
Quick reference: pIC50 of the listed items.

| MOLECULE | pIC50 |
| --- | --- |
| CC1(C)CC(O)(c2ncc(-c3cc(C#N)cc(Nc4nccc(C(F)(F)F)n4)c3)s2)CCC1C(=O)O (single isomer, unassigned) [Example 1.8] | 8.24 |
| CC1(C)C[C@](O)(c2ncc(-c3cc(/C=C\C4CC4)cc(Nc4nccc(C(F)(F)F)n4)c3)s2)CC[C@H]1C(=O)O (single isomer, unassigned) [Example 2.27] | 8.39 |
| CC1(C)C[C@](O)(c2ncc(-c3cc(Nc4nccc(C(F)(F)F)n4)cc(-c4cncc(F)c4)c3)s2)CC[C@H]1C(=O)O (single isomer, unassigned) [Example 2.15] | 8.49 |
| CC1(C)C[C@](O)(c2ncc(-c3cc(Nc4nccc(C(F)(F)F)n4)cc(-c4cccs4)c3)s2)CC[C@H]1C(=O)O (single isomer, unassigned) [Example 3.2] | 7.91 |
